// reported pIC50 per item
- Tested on: HL60
- Measurement description: XTT cytotoxicity assay, HL-60
- Type: cell-based
- Condition context: Homo sapiens, HL-60; 72 h incubation; read-out: XTT, IC50 HL60
Scale note: pIC50 = -log10(concentration in M).

# Structure smiles string, Target system, Property label, Reported
measured = [
    ("C#Cc1cn([C@@H]2O[C@H](CO)[C@@H](O)[C@H]2O)c2ncnc(SC)c12", "HL60", "pIC50", 7.30),
]

# input compound: CSc1ncnc2c1c(-c1ccsc1)cn2[C@@H]1O[C@H](CO)[C@@H](O)[C@H]1O ; wanted: its pIC50
5.34

# input compound: C#Cc1cn([C@@H]2O[C@H](CO)[C@@H](O)[C@H]2O)c2ncnc(C)c12 ; wanted: its pIC50
5.95

# input compound: CNc1ncnc2c1c(-c1ccco1)cn2[C@@H]1O[C@H](CO)[C@@H](O)[C@H]1O ; wanted: its pIC50
6.21

# input compound: COc1ncnc2c1c(-c1ccsc1)cn2[C@@H]1O[C@H](CO)[C@@H](O)[C@H]1O ; wanted: its pIC50
6.89

# input compound: CN(C)c1ncnc2c1c(-c1cccs1)cn2[C@@H]1O[C@H](CO)[C@@H](O)[C@H]1O ; wanted: its pIC50
4.93

# input compound: CN(C)c1ncnc2c1c(-c1ccco1)cn2[C@@H]1O[C@H](CO)[C@@H](O)[C@H]1O ; wanted: its pIC50
6.66

# input compound: CSc1ncnc2c1c(-c1cc3ccccc3o1)cn2[C@@H]1O[C@H](CO)[C@@H](O)[C@H]1O ; wanted: its pIC50
5.92

# input compound: Cc1ncnc2c1c(I)cn2[C@@H]1O[C@H](CO)[C@@H](O)[C@H]1O ; wanted: its pIC50
5.58

# input compound: CSc1ncnc2c1c(I)cn2[C@@H]1O[C@H](CO)[C@@H](O)[C@H]1O ; wanted: its pIC50
7.30

# input compound: COc1ncnc2c1c(-c1cccs1)cn2[C@@H]1O[C@H](CO)[C@@H](O)[C@H]1O ; wanted: its pIC50
7.10

# input compound: C#Cc1cn([C@@H]2O[C@H](CO)[C@@H](O)[C@H]2O)c2ncnc(N(C)C)c12 ; wanted: its pIC50
6.54

# input compound: CN(C)c1ncnc2c1c(I)cn2[C@@H]1O[C@H](CO)[C@@H](O)[C@H]1O ; wanted: its pIC50
7.30

# input compound: CN(C)c1ncnc2c1c(-c1ccsc1)cn2[C@@H]1O[C@H](CO)[C@@H](O)[C@H]1O ; wanted: its pIC50
5.72
